Biological target: β2AR (Homo sapiens)
Sequence (P07550 whole entry): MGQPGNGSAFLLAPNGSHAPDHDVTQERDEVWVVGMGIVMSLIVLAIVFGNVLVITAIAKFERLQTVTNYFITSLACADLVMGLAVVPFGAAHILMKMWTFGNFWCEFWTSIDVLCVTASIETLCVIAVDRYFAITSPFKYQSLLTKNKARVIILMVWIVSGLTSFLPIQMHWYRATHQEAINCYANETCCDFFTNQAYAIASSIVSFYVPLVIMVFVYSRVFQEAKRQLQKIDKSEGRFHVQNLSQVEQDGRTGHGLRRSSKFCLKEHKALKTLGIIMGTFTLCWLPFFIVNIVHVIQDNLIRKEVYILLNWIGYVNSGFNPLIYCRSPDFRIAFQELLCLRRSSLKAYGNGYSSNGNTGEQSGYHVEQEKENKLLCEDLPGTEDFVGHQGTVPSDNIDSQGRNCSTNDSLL
Assay: 125I-CYP competition radioligand binding at β2AR in HDL particles (nanodiscs)
Conditions: binding affinity of modulator for the receptor in the presence of carvedilol, from shifts of carvedilol LogIC50 versus modulator dose
propertyLabel: Kd

Quick one: Kd for CC(C)N(C)S(=O)(=O)c1ccc(Sc2ccc(C(N)=O)cc2)c(C(=O)N[C@@H](CC(N)=O)Cc2ccc(C(C)(C)C)cc2)c1 ? ~2900 nM

---

Target: β2AR (Homo sapiens)
Test: 125I-CYP competition radioligand binding at β2AR in HDL particles (nanodiscs)
Conditions: LogKT, dissociation constant of PAM, carvedilol-bound β2AR
propertyLabel: pKd
FYI, pKd means -log10 of a concentration in mol per litre.

Quick one: pKd for CC(C)N(C)S(=O)(=O)c1ccc(Sc2ccc(C(N)=O)cc2)c(C(=O)N[C@@H](CC(N)=O)Cc2ccc(C(C)(C)C)cc2)c1 ? 5.53
